Some molecules, each annotated with its measured log10 of O2 permeability.
Parameter value (number): base-10 log of O2 permeability in Barrer.

Answered examples (4):
{"MOLECULE": "*CC(*)(C)C(=O)OCCOCCOCC (repeat unit)", "NUMERIC RESULT": 1.06}
{"MOLECULE": "*c1c(C)cc(-c2cc(C)c(N3C(=O)c4ccc(C(=O)Oc5ccc(C(c6ccc(OC(=O)c7ccc8c(c7)C(=O)N(*)C8=O)cc6)(C(F)(F)F)C(F)(F)F)cc5)cc4C3=O)c(C)c2)cc1C (repeat unit)", "NUMERIC RESULT": 0.48}
{"MOLECULE": "*C(C)=C(*)CCC (repeat unit)", "NUMERIC RESULT": 1.59}
{"MOLECULE": "*c1cccc(C(c2cccc(-c3nnc(*)n3-c3ccccc3)c2)(C(F)(F)F)C(F)(F)F)c1 (repeat unit)", "NUMERIC RESULT": 1.42}

Enquiry: # lookup: log10 of O2 permeability of *Cc1ccc(C*)c(CC)c1 (repeat unit)
Return: -0.30

Enquiry: // lookup log10 of O2 permeability for *C/C=C\C* (repeat unit)
Return: 1.28

Enquiry: Returns the measured log10 of O2 permeability for the input molecule. Input: *Oc1ccc(-c2ccc(Oc3ccc(S(=O)(=O)c4ccc(*)cc4)cc3)cc2)cc1 (repeat unit)
Return: 0.11

Enquiry: Report log10 of O2 permeability for *c1ccc2c(c1)C(=O)n1c-2nc2ccc(-c3ccc4c(c3)nc3n4C(=O)c4ccc(C(*)(C(F)(F)F)C(F)(F)F)cc4-3)cc21 (repeat unit) please.
Return: 0.89

Enquiry: Would you mind telling me what log10 of O2 permeability value was observed for *C(=O)c1ccc(C2(c3ccc(C(=O)c4ccc(Oc5ccc(C(=O)c6cccc(C(=O)c7ccc(Oc8ccc(*)cc8)cc7)c6)cc5)cc4)cc3)OC(=O)c3ccccc32)cc1 (repeat unit) ?
Return: -0.57

Enquiry: Quick check: log10 of O2 permeability of *CC(*)C(=O)OCC(F)(F)C(F)(F)C(F)(F)C(F)(F)C(F)(F)C(F)(F)C(F)(F)F (repeat unit) ?
Return: 2.13

Enquiry: Please give the measured log10 of O2 permeability for this molecule: *CC=C(C*)[Si](OC(C)C)(OC(C)C)OC(C)C (repeat unit)
Return: 2.39

Enquiry: Can you share its log10 of O2 permeability? I mean this molecule: *CC(C)C(=O)OCCOC(=O)C(C)C* (repeat unit)
Return: 0.67

Enquiry: Consider the molecule shown here: *C(=C(*)c1ccc(-c2ccc(C(C)(C)C)cc2)cc1)c1ccccc1 (repeat unit) What is its recorded log10 of O2 permeability?
Return: 2.29

Enquiry: Recorded log10 of O2 permeability for *=CC1CC(C=*)C2C1C([Si](O[Si](C)(C)C)(O[Si](C)(C)C)O[Si](C)(C)C)C2[Si](O[Si](C)(C)C)(O[Si](C)(C)C)O[Si](C)(C)C (repeat unit) , please?
Return: 2.47

Enquiry: What does the data say about its log10 of O2 permeability? Entry: *CC(*)OCC1CCCCC1 (repeat unit)
Return: 0.19

Enquiry: Quick one: log10 of O2 permeability of *C(=C(*)c1ccc2c(c1)C(C)(C)c1ccccc1-2)c1ccc(C(C)(C)C)cc1 (repeat unit) ?
Return: 3.54

Enquiry: Suppose we examine the molecule *CC(*)OC(=O)c1ccccc1C (repeat unit) ; what log10 of O2 permeability value has been reported?
Return: -0.33
